Test: Example 2: ocular tissue pharmacokinetics after topical dose, decreasing dose volume at same total amount of drug
Format: in vivo, New Zealand Composite pigmented rabbits
Details: New Zealand Composite pigmented, rabbit, conjunctiva, topical or ocular, 10 ug; 10 μL/eye of 1 mg/mL (10 μg), topical ocular
endpoint: Tmax (min)
Kindly provide the numeric value in min only, without the unit symbol.

stdin: Bench note: what Tmax did Cc1ccc2c(NCC(O)(CC(C)(C)c3cc(F)cc4c3OCC4)C(F)(F)F)cccc2n1 (stereo not shown) show?
stdout: 4.98
